Give measured Plate 1 (% conversion) for each item. Keep answers brief.
# study system: His6-AspH315–758 (human aspartate/asparagine-β-hydroxylase, AspH) (Homo sapiens, UniProt Q12797)
# Construct: N-Terminally His6-tagged human AspH315–758 (His6-AspH315–758) was produced in E. coli BL21 (DE3) cells; made in house; host or cells: E. coli BL21 (DE3), pET-28a(+) vector
# Sequence (Q12797 315-758): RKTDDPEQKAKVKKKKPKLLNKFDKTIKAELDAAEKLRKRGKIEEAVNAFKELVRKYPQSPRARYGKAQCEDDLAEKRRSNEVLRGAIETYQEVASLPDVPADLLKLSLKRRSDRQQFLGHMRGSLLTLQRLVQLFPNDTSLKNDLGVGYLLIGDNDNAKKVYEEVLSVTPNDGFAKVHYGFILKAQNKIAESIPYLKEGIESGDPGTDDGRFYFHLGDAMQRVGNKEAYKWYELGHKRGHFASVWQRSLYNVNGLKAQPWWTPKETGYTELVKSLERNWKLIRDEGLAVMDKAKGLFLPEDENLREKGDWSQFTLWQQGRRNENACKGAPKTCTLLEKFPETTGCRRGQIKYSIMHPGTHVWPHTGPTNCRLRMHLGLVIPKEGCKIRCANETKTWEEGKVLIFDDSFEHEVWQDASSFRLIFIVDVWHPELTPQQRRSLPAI
# test name: SPE-MS AspH inhibition assay (LOPAC screen at fixed 20 μM and IC50 dose-response), hydroxylation of cyclic peptide hFX-CP101–119
# Assay type: biochemical
Where a name gives a salt, the structure may show the parent alone.
Use % as the unit, but write only the number.

State the recorded Plate 1 (% conversion) for this entry: Cc1cc(NC(=O)Nc2ccc3c(ccn3C)c2)sn1
37.70

State the recorded Plate 1 (% conversion) for this entry: Cl.NC1C=CC=C(C(=O)O)C1 (stereo not shown) [Gabaculine hydrochloride]
33.90

State the recorded Plate 1 (% conversion) for this entry: CC1(C(=O)O)C2CCC(O2)C1(C)C(=O)O (stereo not shown)
25.92

State the recorded Plate 1 (% conversion) for this entry: CCN1C[C@]2(COC)[C@H](O)C[C@H](OC)[C@@]34[C@@H]5C[C@@]6(O)[C@H](OC(=O)c7ccccc7)[C@@H]5[C@@](OC(C)=O)([C@@H]([C@H](OC)[C@H]23)[C@@H]14)[C@@H](O)[C@@H]6OC
40.69

State the recorded Plate 1 (% conversion) for this entry: CC(C)C[C@H]1C(=O)N2CCC[C@H]2[C@]2(O)O[C@](NC(=O)[C@@H]3C=C4c5cccc6[nH]c(Br)c(c56)C[C@H]4N(C)C3)(C(C)C)C(=O)N12.CS(=O)(=O)O [(+)-Bromocriptine methanesulfonate]
29.77

State the recorded Plate 1 (% conversion) for this entry: C#CCOC(=O)C1=CCCN(C)C1 [Arecaidine propargyl ester hydrobromide]
37.75

State the recorded Plate 1 (% conversion) for this entry: NCCCCN=C(N)N [Agmatine sulfate]
36.66

State the recorded Plate 1 (% conversion) for this entry: Nc1nc(N)c2nc(CNc3ccc(C(=O)N[C@@H](CCC(=O)O)C(=O)O)cc3)cnc2n1
36.60

State the recorded Plate 1 (% conversion) for this entry: NC(N)=NOCC[C@H](N)C(=O)O.O=S(=O)(O)O [L-Canavanine sulfate]
38.13

State the recorded Plate 1 (% conversion) for this entry: Brc1c(Br)c(Br)c2[nH]cnc2c1Br
32.96

State the recorded Plate 1 (% conversion) for this entry: COc1ccc2c(c[n+](C)c3c4cc5c(cc4ccc23)OCO5)c1OC [Chelerythrine chloride]
32.96

State the recorded Plate 1 (% conversion) for this entry: Clc1ccc(C(c2ccc(Cl)cc2)n2cc[n+](CC(OCc3ccc(Cl)cc3Cl)c3ccc(Cl)cc3Cl)c2)cc1 (stereo not shown) [Calmidazolium chloride]
58.50

State the recorded Plate 1 (% conversion) for this entry: O=C(O)C1CCCNC1 (racemic) [(±)-Nipecotic acid]
30.40

State the recorded Plate 1 (% conversion) for this entry: Cl.NC[C@@H]1O[C@H](C23CC4CC(CC(C4)C2)C3)Cc2c1ccc(O)c2O [A-77636 hydrochloride]
15.05

State the recorded Plate 1 (% conversion) for this entry: O=C(O)[C@@H]1CCN1
39.44

State the recorded Plate 1 (% conversion) for this entry: CC(N)(Cc1ccc(O)cc1)C(=O)O (racemic)
33.46

###

# study system: His6-AspH315–758 (human aspartate/asparagine-β-hydroxylase, AspH) (Homo sapiens)
# Construct: N-Terminally His6-tagged human AspH315–758 (His6-AspH315–758) was produced in E. coli BL21 (DE3) cells; made in house; host or cells: E. coli BL21 (DE3), pET-28a(+) vector
# Sequence (Q12797 315-758): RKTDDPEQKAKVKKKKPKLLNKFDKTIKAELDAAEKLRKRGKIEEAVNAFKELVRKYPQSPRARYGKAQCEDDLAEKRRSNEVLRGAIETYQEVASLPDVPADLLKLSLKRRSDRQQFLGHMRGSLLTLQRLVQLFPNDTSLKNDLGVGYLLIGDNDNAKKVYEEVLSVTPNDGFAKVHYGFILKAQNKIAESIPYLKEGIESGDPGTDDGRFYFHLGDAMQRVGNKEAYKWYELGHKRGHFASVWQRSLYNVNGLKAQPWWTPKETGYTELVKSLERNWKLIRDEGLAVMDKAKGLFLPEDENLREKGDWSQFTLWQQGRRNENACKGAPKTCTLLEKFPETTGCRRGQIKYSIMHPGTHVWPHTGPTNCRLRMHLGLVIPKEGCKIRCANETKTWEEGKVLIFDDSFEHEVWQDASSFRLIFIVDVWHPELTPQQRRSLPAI
# test name: SPE-MS AspH inhibition assay (LOPAC screen at fixed 20 μM and IC50 dose-response), hydroxylation of cyclic peptide hFX-CP101–119
# Assay type: biochemical
# experimental setup: read-out: Plate 2 (% inhibition)
Structures can show the parent of a compound that is named as a salt.
reported endpoint: inhibition at 20 µM
# include the unit after the value

State the recorded inhibition at 20 µM for this entry: CC(=O)[C@H]1CC[C@H]2[C@@H]3CC[C@H]4C[C@](C)(O)CC[C@]4(C)[C@H]3CC[C@]12C
-1.16%

State the recorded inhibition at 20 µM for this entry: c1ccc2c(c1)[I+]c1ccccc1-2 [Diphenyleneiodonium chloride]
0.88%

State the recorded inhibition at 20 µM for this entry: CCCN(CCC)CCc1ccc(O)c(O)c1 [Dipropyldopamine hydrobromide]
76.7%

State the recorded inhibition at 20 µM for this entry: CN1C[C@H](C(=O)N[C@]2(C)O[C@@]3(O)[C@@H]4CCCN4C(=O)[C@H](Cc4ccccc4)N3C2=O)C[C@@H]2c3cccc4[nH]cc(c34)C[C@H]21 [Dihydroergotamine methanesulfonate]
-3.42%

State the recorded inhibition at 20 µM for this entry: CC(Cc1ccc(O)cc1)NCC(O)c1cc(O)cc(O)c1 (centres unmarked) [Fenoterol hydrobromide]
-8.89%

State the recorded inhibition at 20 µM for this entry: CN1CC[C@@]2(C)c3cc(OC(=O)Nc4ccccc4)ccc3N(C)[C@@H]12
-7.56%

State the recorded inhibition at 20 µM for this entry: CC(C)c1cccc(C(C)C)c1O
-6.34%

State the recorded inhibition at 20 µM for this entry: CC[N+](C)(C)c1cccc(O)c1 [Edrophonium chloride]
-4.75%

State the recorded inhibition at 20 µM for this entry: C[N+](C)(C)CCCCCC[N+](C)(C)C [Hexamethonium bromide]
-13.8%

State the recorded inhibition at 20 µM for this entry: CN1C(=O)CCS(=O)(=O)C1c1ccc(Cl)cc1 (centres unmarked)
-10.3%

State the recorded inhibition at 20 µM for this entry: CCCCc1ccc(C(=O)O)nc1
23.3%

State the recorded inhibition at 20 µM for this entry: CC[C@H]1CN2CCc3cc(OC)c(OC)cc3[C@@H]2C[C@@H]1C[C@H]1NCCc2cc(OC)c(OC)cc21 [Emetine dihydrochloride hydrate]
-4.49%

State the recorded inhibition at 20 µM for this entry: Cc1nccc2c1[nH]c1ccccc12
1.92%

State the recorded inhibition at 20 µM for this entry: COc1ccc2c(c1OC)C(=O)OC2C1c2cc3c(cc2CCN1C)OCO3 (single isomer, unassigned; (+)) [(+)-Hydrastine]
-6.94%

State the recorded inhibition at 20 µM for this entry: Cc1cccc(C)c1NC(=O)CN1CCCC1=O
3.19%

State the recorded inhibition at 20 µM for this entry: OC[C@H]1NC[C@H](O)[C@@H](O)[C@@H]1O [1-Deoxynojirimycin hydrochloride]
2.25%

State the recorded inhibition at 20 µM for this entry: COc1ccc(C(CN(C)C)C2(O)CCCCC2)cc1 (centres unmarked) [Venlafaxine hydrochloride]
-1.48%

###

# study system: His6-AspH315–758 (human aspartate/asparagine-β-hydroxylase, AspH) (Homo sapiens)
# Construct: N-Terminally His6-tagged human AspH315–758 (His6-AspH315–758) was produced in E. coli BL21 (DE3) cells; made in house; host or cells: E. coli BL21 (DE3), pET-28a(+) vector
# test name: SPE-MS AspH inhibition assay (LOPAC screen at fixed 20 μM and IC50 dose-response), hydroxylation of cyclic peptide hFX-CP101–119
# Type: biochemical
# experimental setup: LOPAC compound at 20uM, plate 2; normalised to DMSO and 2,4-PDCA controls; read-out: Plate 2 (% inhibition)
Structures can show the parent of a compound that is named as a salt.
reported endpoint: inhibition at 20 µM (%)
Use % as the unit, but write only the number.

State the recorded inhibition at 20 µM for this entry: CC(CCc1ccc(O)cc1)NCCc1ccc(O)c(O)c1 (stereo not drawn) [Dobutamine hydrochloride]
82.1

State the recorded inhibition at 20 µM for this entry: CC(=O)C(C)=O
-6.62

State the recorded inhibition at 20 µM for this entry: CCC1(C)CC(=O)NC1=O (stereo not drawn) [Ethosuximide]
-5.65

State the recorded inhibition at 20 µM for this entry: O=c1[nH]cc(F)c(=O)[nH]1
-0.46

State the recorded inhibition at 20 µM for this entry: C[C@]12CC[C@@H]3c4ccc(O)cc4CC[C@H]3[C@@H]1CCC2=O
-5.35

State the recorded inhibition at 20 µM for this entry: CCN(CC)CCNC(=O)c1c(C)[nH]c(/C=C2\C(=O)Nc3ccc(F)cc32)c1C [Sunitinib malate]
72.5

State the recorded inhibition at 20 µM for this entry: OC(CN1CCC(Cc2ccc(F)cc2)CC1)c1ccc(Cl)cc1 (stereo not drawn)
-11.3

State the recorded inhibition at 20 µM for this entry: CC(=O)[C@]1(O)Cc2c(O)c3c(c(O)c2[C@@H](O[C@H]2C[C@H](N)[C@H](O)[C@H](C)O2)C1)C(=O)c1ccccc1C3=O
3.78

State the recorded inhibition at 20 µM for this entry: COc1cccc2c1[C@@H]1CN(CCCCn3c(=O)[nH]c4c(sc5ncc(-c6ccccc6)nc54)c3=O)C[C@@H]1CO2 [Fiduxosin hydrochloride]
-85.9

State the recorded inhibition at 20 µM for this entry: O=C(O)COCCN1CCN(C(c2ccccc2)c2ccc(Cl)cc2)CC1 (stereo not drawn) [Cetirizine dihydrochloride]
-5.77

State the recorded inhibition at 20 µM for this entry: CC(C)C(=O)c1c(C(C)C)nn2ccccc12
-9.26

State the recorded inhibition at 20 µM for this entry: O=c1cc(O)cc(/C=C/c2ccc(O)c(O)c2)o1 [Hispidin, reference compound]
98.3

State the recorded inhibition at 20 µM for this entry: Cn1c(=O)[nH]c2ncn(C)c2c1=O
1.36

State the recorded inhibition at 20 µM for this entry: CN(CCOc1ccc(NS(C)(=O)=O)cc1)CCc1ccc(NS(C)(=O)=O)cc1 [Dofetilide]
-3.76

State the recorded inhibition at 20 µM for this entry: COc1cc2nc(N3CCN(C(=O)C4COc5ccccc5O4)CC3)nc(N)c2cc1OC (stereo not drawn) [Doxazosin mesylate]
-17.8
